- testedOn: T1, hu-M-IL1RAP construct, positions S21-T367 (extracellular domain of the membrane form of human IL1RAP) (human, UniProt Q9NPH3 21-367)
- T1 construct: Biotinylated when captured on the Biacore chip
- T1 sequence: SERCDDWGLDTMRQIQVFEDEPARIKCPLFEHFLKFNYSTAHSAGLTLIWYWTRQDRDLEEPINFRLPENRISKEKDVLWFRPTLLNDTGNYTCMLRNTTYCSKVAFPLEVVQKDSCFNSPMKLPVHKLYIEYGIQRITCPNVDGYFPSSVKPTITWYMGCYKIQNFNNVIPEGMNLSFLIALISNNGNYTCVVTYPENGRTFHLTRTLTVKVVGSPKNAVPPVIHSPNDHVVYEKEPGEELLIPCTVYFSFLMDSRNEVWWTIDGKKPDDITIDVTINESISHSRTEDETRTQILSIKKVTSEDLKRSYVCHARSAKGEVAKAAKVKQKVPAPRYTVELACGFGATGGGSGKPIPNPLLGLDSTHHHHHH
- assayRemarks: SPR, Fab against parent Fab
measuredEndpoint: Fold Improvement in KD @ 25° C. (fold)
Report as a plain number; the unit fold is understood.

Please review the following examples before continuing.
binder	measuredEndpoint	endpointValue
K2 Fab (VL L33G) (Fab, V domains shown, Fab with 8xHis tag) VH: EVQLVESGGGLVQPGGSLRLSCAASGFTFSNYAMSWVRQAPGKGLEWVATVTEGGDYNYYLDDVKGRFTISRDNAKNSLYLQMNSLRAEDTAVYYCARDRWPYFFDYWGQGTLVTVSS VL: DIQMTQSPSSLSASVGDRVTITCRASENIYSNGAWYQQKPGKSPKLLVYGAKNLADGVPSRFSGSGSGTDYTLTISSLQPEDFATYYCQHFWTTPRTFGGGTKVEIK	Fold Improvement in KD @ 25° C.	9.74
K4 Fab (VL W92L) (Fab, V domains shown, Fab with 8xHis tag) VH: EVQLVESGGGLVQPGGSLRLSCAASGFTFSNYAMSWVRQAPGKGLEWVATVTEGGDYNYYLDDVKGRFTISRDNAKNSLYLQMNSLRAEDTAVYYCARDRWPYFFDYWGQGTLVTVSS VL: DIQMTQSPSSLSASVGDRVTITCRASENIYSNLAWYQQKPGKSPKLLVYGAKNLADGVPSRFSGSGSGTDYTLTISSLQPEDFATYYCQHFLTTPRTFGGGTKVEIK	Fold Improvement in KD @ 25° C.	2.29
K1 Fab (VL Y30W) (Fab, V domains shown, Fab with 8xHis tag) VH: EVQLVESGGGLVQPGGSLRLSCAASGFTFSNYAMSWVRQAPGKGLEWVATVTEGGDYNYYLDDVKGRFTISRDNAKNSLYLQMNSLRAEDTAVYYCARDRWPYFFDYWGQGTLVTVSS VL: DIQMTQSPSSLSASVGDRVTITCRASENIWSNLAWYQQKPGKSPKLLVYGAKNLADGVPSRFSGSGSGTDYTLTISSLQPEDFATYYCQHFWTTPRTFGGGTKVEIK	Fold Improvement in KD @ 25° C.	9.06
H3 Fab (VH V51S) (Fab, V domains shown, Fab with 8xHis tag) VH: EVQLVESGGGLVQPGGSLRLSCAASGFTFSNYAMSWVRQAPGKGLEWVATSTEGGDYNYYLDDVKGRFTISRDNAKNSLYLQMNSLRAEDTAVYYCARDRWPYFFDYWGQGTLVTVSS VL: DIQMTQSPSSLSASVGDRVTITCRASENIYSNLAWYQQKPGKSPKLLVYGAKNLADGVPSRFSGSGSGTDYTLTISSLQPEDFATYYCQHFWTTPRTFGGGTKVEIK	Fold Improvement in KD @ 25° C.	8.51

Lab note: next binder to report on.
Data request: # Fold Improvement in KD @ 25° C. lookup, item H4 Fab (VH F29Q) (Fab, V domains shown, Fab with 8xHis tag) VH: EVQLVESGGGLVQPGGSLRLSCAASGFTQSNYAMSWVRQAPGKGLEWVATVTEGGDYNYYLDDVKGRFTISRDNAKNSLYLQMNSLRAEDTAVYYCARDRWPYFFDYWGQGTLVTVSS VL: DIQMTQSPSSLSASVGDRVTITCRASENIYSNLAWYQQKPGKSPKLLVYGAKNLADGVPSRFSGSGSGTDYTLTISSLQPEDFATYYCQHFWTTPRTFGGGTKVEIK
Data returned: 8
